Items are presented alongside their recorded Ki.
molecular target: D(4) dopamine receptor (Homo sapiens)
Sequence (P21917 whole entry): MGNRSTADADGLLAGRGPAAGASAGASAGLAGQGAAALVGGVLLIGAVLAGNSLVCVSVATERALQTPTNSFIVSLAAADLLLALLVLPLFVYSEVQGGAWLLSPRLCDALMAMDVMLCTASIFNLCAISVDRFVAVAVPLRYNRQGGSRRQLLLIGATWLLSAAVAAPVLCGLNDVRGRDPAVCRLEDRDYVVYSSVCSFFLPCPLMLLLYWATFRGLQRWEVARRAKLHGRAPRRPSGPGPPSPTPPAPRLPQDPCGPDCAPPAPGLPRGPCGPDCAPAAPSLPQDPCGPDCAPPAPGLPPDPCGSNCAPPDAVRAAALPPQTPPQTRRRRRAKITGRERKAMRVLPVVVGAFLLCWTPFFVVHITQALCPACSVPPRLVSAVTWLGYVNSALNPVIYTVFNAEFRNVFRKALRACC
Provide the reading as a plain figure in nM.

{"substanceSmiles": "CC(C)(C)C(=O)NCCCCN1CCN(c2ccccc2)CC1", "unitsSymbol": "nM", "Ki": 316}
{"substanceSmiles": "COc1ccc(N2CCN(CCCCNC(=O)C(C)(C)C)CC2)cc1", "unitsSymbol": "nM", "Ki": 316}
{"substanceSmiles": "CCCC(C)(C)C(=O)NCCN1CCN(c2ccc(Cl)cc2)CC1", "unitsSymbol": "nM", "Ki": 7.94}
{"substanceSmiles": "O=C(NCCCCN1CCN(c2ccc(Cl)cc2)CC1)C12CC3CC(CC(C3)C1)C2", "unitsSymbol": "nM", "Ki": 20}

// below: Ki requested for another molecule
Prompt line: Write down the reported Ki of O=C(NCCCCN1CCN(c2ccc(Cl)cc2)CC1)c1ccccc1 , test system: D(4) dopamine receptor (Homo sapiens).
Response line: 158

====

biological target: Dopamine receptors; D2 & D4 (Homo sapiens) (UniProt P14416+P21917); assay: Selectivity of D2 receptor over D4 receptor; assay type: protein assay
Items are presented alongside their recorded Selectivity.
Reply with the value as a number alone.

Prompt line: Recorded Selectivity for CC1(C(=O)NCCCCN2CCN(c3ccc(Cl)cc3)CC2)CCCCC1 , please?
Response line: 100

Prompt line: Recorded Selectivity for O=C(NCCCCN1CCN(c2ccc(Cl)cc2)CC1)C12CC3CC(CC(C3)C1)C2 , please?
Response line: 30

Prompt line: Recorded Selectivity for CC(C)(C)C(=O)NCCCCN1CCN(c2ccc(Br)cc2)CC1 , please?
Response line: 50

Prompt line: Recorded Selectivity for CC(=O)NCCCCN1CCN(c2ccc(Cl)cc2)CC1 , please?
Response line: 1

====

target: D(2) dopamine receptor (Homo sapiens); assay: Binding affinity at cloned human Dopamine receptor D2 expressed in CHO cells, using [125I]iodosulpiride as radioligand
Sequence (P14416 whole entry): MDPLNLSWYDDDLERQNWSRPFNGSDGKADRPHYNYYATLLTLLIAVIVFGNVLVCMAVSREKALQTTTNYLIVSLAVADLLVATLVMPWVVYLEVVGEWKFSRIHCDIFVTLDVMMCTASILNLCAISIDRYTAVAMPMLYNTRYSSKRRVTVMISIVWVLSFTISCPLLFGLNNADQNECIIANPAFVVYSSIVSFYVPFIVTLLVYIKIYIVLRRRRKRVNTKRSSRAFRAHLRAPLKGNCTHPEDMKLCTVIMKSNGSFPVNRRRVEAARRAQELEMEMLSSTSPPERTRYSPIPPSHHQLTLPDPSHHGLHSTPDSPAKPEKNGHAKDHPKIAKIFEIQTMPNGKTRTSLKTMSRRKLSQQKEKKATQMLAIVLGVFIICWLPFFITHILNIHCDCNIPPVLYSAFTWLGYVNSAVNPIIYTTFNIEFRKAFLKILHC
Items are presented alongside their recorded Ki.
Provide the reading as a plain figure in µM.

{"substanceSmiles": "CC(=O)NCCCCN1CCN(c2ccc(Cl)cc2)CC1", "Ki, µM": 1.58}
{"substanceSmiles": "CC(C)C(=O)NCCCCN1CCN(c2ccc(Cl)cc2)CC1", "Ki, µM": 2}
{"substanceSmiles": "CC(C)(C)C(=O)NCCCCN1CCN(c2ccccc2Cl)CC1", "Ki, µM": 0.0631}
{"substanceSmiles": "CC(C)(C)C(=O)NCCCCN1CCN(c2ccc(F)cc2)CC1", "Ki, µM": 2}
{"substanceSmiles": "CC(C)(C)C(=O)NCCCCN1CCN(c2ccccc2)CC1", "Ki, µM": 0.794}
{"substanceSmiles": "CC1(C(=O)NCCCCN2CCN(c3ccc(Cl)cc3)CC2)CCCCC1", "Ki, µM": 1}

Prompt line: Recorded Ki for CC1(C(=O)NCCN2CCN(c3ccc(Cl)cc3)CC2)CCCCC1 , please?
Response line: 0.794

Prompt line: Recorded Ki for CCC(C)(C)C(=O)NCCCCN1CCN(c2ccc(Cl)cc2)CC1 , please?
Response line: 1

Prompt line: Recorded Ki for O=C(NCCCCN1CCN(c2ccc(Cl)cc2)CC1)c1ccccc1 , please?
Response line: 0.398

Prompt line: Recorded Ki for COc1ccccc1N1CCN(CCCCNC(=O)C(C)(C)C)CC1 , please?
Response line: 0.02
